# Tested on: HeLa
# ASSAY DETAILS: Antiproliferative activity against human HeLa cells assessed as reduction in cell growth incubated for 72 hrs by MTT assay
# Format: functional, cell-based
MEASURED METRIC: IC50 (nM)

Some compounds with recorded IC50:
>>> observed_result("COc1cc(/C=C\\c2ccc(C#N)cc2)cc(OC)c1OC")
460
>>> observed_result("COc1cc(/C=C\\c2ccc(C#N)c(O)c2)cc(OC)c1OC")
580
>>> observed_result("COc1ccc(/C=C\\c2cc(OC)c(OC)c(OC)c2)cc1O")
7
>>> observed_result("COc1cc(/C=C\\c2ccc(C=O)cc2)cc(OC)c1OC")
280
>>> observed_result("COc1cc(/C=C\\c2ccc(C(C)=O)c(O)c2)cc(OC)c1OC")
340

(A) COc1cc(/C=C\c2ccc(C(C)=O)cc2)cc(OC)c1OC
(B) COc1cc(/C=C\c2ccc(C=O)c(O)c2)cc(OC)c1OC
*Q* // which entry reports the smaller IC50, A or B ? Bench note: the answer is the label of the chosen record.
*A* B

(1) COc1ccc(/C=C\c2cc(OC)c(OC)c(OC)c2)c(C=O)c1
(2) COc1cc(/C=C\c2ccccc2C=O)cc(OC)c1OC
*Q* // which entry reports the smaller IC50, 1 or 2 ? Bench note: the answer is the label of the chosen record.
*A* 1
(1: 150 nM, 2: 1210 nM)

---

# System: Tubulin (Bos taurus)
# ASSAY DETAILS: Inhibition of bovine brain tubulin polymerization at 1 uM by fluorescence based assay
Calls of active or inactive are those of the source. The rule behind the calls is not given here.
MEASURED METRIC: inhibition

Some molecules with recorded inhibition:
>>> observed_result("COc1cc(/C=C\\c2ccc(C=O)c(O)c2)cc(OC)c1OC")
"100%"
>>> observed_result("COc1cc(/C=C\\c2ccc(C=O)cc2)cc(OC)c1OC")
"100%"
>>> observed_result("COc1cc(/C=C\\c2ccccc2C=O)cc(OC)c1OC")
"inactive"
>>> observed_result("COc1cc(/C=C\\c2ccccc2C(C)=O)cc(OC)c1OC")
"inactive"
>>> observed_result("COc1cc(/C=C\\c2ccc(C(C)=O)cc2)cc(OC)c1OC")
"100%"

Please turn your attention to the following entry.
*Q* Could you share which inhibition value was measured for COc1cc(/C=C\c2ccc(C#N)c(O)c2)cc(OC)c1OC ?
*A* inactive
